# Experimental Details: inhibitors of TNFa-induced NFkB p65 translocation, primary screen, imaging, HUVEC, MLSMR starter and 10KST1 sets (AID 438);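 also: compound added about 3h40 before a 20 min TNFalpha stimulation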
# Details: HUVEC TNFa-induced p65 nuclear translocation; measured here: nuclei count (cytotoxicity indicator), at 2.08 µM
Below: a set of entries, each annotated with reported cell count.
Measured Metric: cell count

>>> number("Cc1occc1C(=O)Nc1ccc(S(=O)(=O)N2CCN(C)CC2)cc1")
318
>>> number("CC1=C(C)C(=O)NC(Nc2nc(C)c3cc(C)cc(C)c3n2)N1 (centres undefined)")
540
>>> number("COc1cccc(C(=O)Nc2ccc(NC(C)=O)cn2)c1")
759
>>> number("CC(C(=O)OCn1nnc2ccccc2c1=O)N1C(=O)c2ccccc2C1=O (centres undefined)")
532
>>> number("CCCNC(=O)N1CCN(S(=O)(=O)c2ccc(C)c(C)c2)CC1")
412
>>> number("COCCCn1c2nc3ccccc3nc2c2c(=O)n(-c3ccccc3OC)cnc21")
334
>>> number("O=C(CSc1nnc2sc3ccccc3n12)c1ccco1")
308
>>> number("O=C(Oc1ccc(Cl)cc1N1C(=O)CCC1=O)c1ccco1")
331
>>> number("Cc1c(NC(=O)c2ccc(COc3ccc4ccccc4c3)o2)c(=O)n(-c2ccccc2)n1C")
417
>>> number("C=CCOC(=O)C1=C(C)NC(=O)NC1c1cn(-c2ccccc2)nc1-c1cccs1 (centres undefined)")
663
>>> number("CN(CC(=O)Nc1sccc1C#N)C1CCCCC1")
723
>>> number("Cn1c(=O)c2c(nc(CN3CCN(c4ccccc4F)CC3)n2CCN2CCOCC2)n(C)c1=O")
317
>>> number("COc1ccc(C/C(O)=C(\\C#N)c2nc3ccccc3s2)cc1")
783
>>> number("O=C(Cc1c(F)cccc1Cl)Nc1ccncc1")
285
